# tested target: T1, human HIF-1α PAS-B (238-349), recombinant, His-tagged (human, UniProt Q16665 238-349, labelled with Monolith NT-647 dye for MST)
# T1 construct: range 238-349; Expressed in E. coli BL21(DE3)-Rosetta from pET28a; also called HIF-1α PAS-B domain; PAS-B domain of HIF-1α; not shown: His tag from pET28a vector (BamHI/SacI cloning)
# T1 sequence (Q16665 238-349): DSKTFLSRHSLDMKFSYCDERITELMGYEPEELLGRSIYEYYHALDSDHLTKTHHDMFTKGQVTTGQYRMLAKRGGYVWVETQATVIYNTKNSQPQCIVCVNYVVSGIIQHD
# experiment summary: MST, HIF-1α PAS-B (column 1α (µM))
readout type: Kd (µM)
Dear colleague, please return just the value in µM, with no unit written.

Here's what some known entries look like.
{"binder": "CALIIF (head-to-tail cyclic (cyclo-), also called CALIIF; cyclic peptide #10) [cyclo-cys ala leu ile ile phe]", "Kd [µM]": 30}
{"binder": "CRLAIF (head-to-tail cyclic (cyclo-), also called CRLAIF; cyclic peptide #6) [cyclo-cys arg leu ala ile phe]", "Kd [µM]": 13}
{"binder": "CRLIIA (head-to-tail cyclic (cyclo-), also called CRLIIA; cyclic peptide #8) [cyclo-cys arg leu ile ile ala]", "Kd [µM]": 91}
{"binder": "CRLIAF (head-to-tail cyclic (cyclo-), also called CRLIAF; cyclic peptide #7) [cyclo-cys arg leu ile ala phe]", "Kd [µM]": 111}

So what's the measured Kd for this one? CRAIIF (head-to-tail cyclic (cyclo-), also called CRAIIF; cyclic peptide #11) [cyclo-cys arg ala ile ile phe]
53
